Target: Human Cav 2.2 channels (Homo sapiens)
Sequence (Q00975 whole entry): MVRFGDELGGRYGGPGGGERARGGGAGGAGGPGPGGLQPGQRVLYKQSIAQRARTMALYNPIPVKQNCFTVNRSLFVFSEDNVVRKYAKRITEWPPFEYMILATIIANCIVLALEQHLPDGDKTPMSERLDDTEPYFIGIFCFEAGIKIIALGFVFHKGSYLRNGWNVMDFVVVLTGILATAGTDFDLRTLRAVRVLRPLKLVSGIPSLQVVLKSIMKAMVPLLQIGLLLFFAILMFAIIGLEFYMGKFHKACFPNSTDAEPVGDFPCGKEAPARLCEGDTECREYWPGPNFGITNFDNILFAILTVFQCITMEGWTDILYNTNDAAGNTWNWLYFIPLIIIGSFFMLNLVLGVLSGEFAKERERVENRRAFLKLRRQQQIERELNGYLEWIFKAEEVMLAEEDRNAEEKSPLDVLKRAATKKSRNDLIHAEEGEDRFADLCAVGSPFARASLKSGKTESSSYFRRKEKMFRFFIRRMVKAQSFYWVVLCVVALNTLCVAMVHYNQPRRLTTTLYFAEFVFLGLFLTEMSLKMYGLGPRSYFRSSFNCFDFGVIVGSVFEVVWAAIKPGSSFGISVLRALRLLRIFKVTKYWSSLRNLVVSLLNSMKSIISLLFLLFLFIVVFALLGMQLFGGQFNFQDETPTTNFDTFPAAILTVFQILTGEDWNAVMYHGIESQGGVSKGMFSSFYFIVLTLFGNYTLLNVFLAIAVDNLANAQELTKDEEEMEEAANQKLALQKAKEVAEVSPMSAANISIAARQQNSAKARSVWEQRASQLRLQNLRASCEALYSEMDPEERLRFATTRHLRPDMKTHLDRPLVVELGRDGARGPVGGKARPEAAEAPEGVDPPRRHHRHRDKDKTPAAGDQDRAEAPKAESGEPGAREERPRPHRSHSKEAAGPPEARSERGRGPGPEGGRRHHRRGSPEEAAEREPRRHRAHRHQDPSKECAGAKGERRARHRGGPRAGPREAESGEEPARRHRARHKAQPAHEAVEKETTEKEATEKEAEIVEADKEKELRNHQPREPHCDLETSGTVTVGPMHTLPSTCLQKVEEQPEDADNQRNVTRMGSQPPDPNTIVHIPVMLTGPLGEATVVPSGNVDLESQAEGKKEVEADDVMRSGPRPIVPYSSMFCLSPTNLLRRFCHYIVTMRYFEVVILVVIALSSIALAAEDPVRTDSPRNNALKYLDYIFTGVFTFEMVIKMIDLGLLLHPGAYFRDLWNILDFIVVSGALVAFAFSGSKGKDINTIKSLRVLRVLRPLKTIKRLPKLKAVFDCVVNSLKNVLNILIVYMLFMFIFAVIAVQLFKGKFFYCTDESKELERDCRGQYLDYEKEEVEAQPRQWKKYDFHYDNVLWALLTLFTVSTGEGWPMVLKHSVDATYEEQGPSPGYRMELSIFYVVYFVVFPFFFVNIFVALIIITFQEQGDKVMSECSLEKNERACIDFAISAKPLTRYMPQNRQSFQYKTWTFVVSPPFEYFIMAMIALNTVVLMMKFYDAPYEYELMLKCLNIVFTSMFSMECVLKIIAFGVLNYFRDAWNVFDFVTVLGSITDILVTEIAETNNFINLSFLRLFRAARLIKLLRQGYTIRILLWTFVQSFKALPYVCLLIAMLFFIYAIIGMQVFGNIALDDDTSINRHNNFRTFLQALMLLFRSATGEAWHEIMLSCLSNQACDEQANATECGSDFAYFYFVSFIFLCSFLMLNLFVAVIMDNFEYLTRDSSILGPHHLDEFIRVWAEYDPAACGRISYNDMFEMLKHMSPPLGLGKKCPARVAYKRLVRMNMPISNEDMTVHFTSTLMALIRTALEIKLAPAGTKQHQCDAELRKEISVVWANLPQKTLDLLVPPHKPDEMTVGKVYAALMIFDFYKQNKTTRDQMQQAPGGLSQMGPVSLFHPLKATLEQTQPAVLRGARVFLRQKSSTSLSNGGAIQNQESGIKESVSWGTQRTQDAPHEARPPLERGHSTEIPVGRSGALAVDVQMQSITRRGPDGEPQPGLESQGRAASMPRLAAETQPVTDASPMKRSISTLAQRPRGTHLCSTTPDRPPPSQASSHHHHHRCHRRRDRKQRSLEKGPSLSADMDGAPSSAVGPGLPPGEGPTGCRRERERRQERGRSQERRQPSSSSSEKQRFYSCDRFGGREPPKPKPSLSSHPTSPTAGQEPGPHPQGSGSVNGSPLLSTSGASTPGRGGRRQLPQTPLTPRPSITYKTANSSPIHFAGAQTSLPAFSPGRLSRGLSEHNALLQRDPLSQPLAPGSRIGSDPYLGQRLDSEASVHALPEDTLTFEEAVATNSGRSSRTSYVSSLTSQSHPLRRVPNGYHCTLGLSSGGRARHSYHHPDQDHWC
Sequence (P54289 25-1103 partner): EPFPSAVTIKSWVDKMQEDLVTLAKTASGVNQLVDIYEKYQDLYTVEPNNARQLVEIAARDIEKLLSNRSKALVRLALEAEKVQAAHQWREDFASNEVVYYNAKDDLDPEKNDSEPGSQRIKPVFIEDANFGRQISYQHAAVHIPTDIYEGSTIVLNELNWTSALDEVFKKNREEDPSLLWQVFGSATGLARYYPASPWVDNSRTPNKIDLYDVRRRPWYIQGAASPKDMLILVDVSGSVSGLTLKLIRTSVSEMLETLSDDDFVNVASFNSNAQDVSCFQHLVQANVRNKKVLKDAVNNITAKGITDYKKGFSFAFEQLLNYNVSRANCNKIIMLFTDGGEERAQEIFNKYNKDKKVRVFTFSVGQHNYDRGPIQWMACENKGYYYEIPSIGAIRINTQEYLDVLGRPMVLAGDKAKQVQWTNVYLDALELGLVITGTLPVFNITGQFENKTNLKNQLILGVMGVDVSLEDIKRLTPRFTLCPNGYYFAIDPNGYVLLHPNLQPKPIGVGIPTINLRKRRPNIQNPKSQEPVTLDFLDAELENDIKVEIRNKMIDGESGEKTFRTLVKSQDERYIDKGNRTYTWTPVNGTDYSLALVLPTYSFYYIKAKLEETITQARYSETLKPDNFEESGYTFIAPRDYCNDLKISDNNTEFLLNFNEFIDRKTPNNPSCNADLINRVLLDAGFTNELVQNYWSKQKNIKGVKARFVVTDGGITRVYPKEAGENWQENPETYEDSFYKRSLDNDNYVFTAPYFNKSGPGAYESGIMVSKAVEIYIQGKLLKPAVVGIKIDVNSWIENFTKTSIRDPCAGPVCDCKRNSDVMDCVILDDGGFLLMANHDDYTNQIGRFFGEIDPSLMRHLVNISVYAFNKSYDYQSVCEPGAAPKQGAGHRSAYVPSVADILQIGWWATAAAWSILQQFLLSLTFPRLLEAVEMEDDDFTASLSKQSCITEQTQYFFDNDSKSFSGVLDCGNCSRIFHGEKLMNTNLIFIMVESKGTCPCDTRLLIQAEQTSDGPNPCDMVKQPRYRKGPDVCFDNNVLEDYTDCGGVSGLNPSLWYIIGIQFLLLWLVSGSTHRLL
Sequence (P54284 whole entry partner): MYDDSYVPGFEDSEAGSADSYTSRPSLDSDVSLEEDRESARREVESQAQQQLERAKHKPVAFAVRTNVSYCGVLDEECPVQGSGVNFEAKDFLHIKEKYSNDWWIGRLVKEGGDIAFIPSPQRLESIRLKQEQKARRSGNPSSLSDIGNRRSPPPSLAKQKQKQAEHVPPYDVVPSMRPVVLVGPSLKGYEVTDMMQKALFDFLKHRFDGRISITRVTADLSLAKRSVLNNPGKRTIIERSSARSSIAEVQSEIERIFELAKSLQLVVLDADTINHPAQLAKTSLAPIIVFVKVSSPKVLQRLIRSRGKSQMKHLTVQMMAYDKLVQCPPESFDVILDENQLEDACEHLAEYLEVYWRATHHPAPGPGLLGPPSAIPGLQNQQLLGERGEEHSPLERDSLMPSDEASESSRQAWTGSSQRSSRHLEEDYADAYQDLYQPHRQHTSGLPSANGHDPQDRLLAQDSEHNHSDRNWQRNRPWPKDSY
Assay: Fluorescent assay for CaV2.2 channels using potassium depolarization (VIPR/FLIPR)
Assay type: cell-based
Settings: FLIPR data; closed state; read-out: CAv2.2 IC50 Closed
pIC50: −log10 of the molar value.
observationType: pIC50

Some entries whose results are on file:
molecule: CC(C)(C[C@H]1C[C@@H](NC(=O)[C@H]2CCCC[C@H]2N)C1)S(=O)(=O)c1cccc(C(F)(F)F)c1 [Compound 744]
readoutValue: 5.39
--
molecule: N[C@@H]1CCCC[C@H]1C(=O)NC[C@H]1C[C@H](S(=O)(=O)c2cccc(OC(F)(F)F)c2)C1 [Compound 714]
readoutValue: 5.24
--
molecule: CC(C)(C1CC(CNC(=O)c2cc(C(F)(F)F)n[nH]2)C1)S(=O)(=O)c1cccc(C(F)(F)F)c1 (stereo not shown) [Compound 682]
readoutValue: 5.18
--
molecule: CS(=O)(=O)c1cc(Cl)ccc1C(=O)NC[C@H]1C[C@H](S(=O)(=O)c2cc(F)cc(C(F)(F)F)c2)C1 [Compound 715]
readoutValue: 5.00

a. N[C@H]1CCCCC1C(=O)NC[C@H]1C[C@H](S(=O)(=O)c2cc(F)cc(C(F)(F)F)c2)C1 (stereo partly shown) [Compound 711]
b. CC(C)([C@H]1C[C@@H](CNc2ccc(F)c(Cl)c2)C1)S(=O)(=O)c1cccc(C(F)(F)F)c1 [Compound 753]
c. CC(C)([C@H]1C[C@H](NC(=O)c2ccc(Cl)c(F)c2)C1)S(=O)(=O)c1cccc(OC(F)(F)F)c1 [Compound 633]
Order these by pIC50, descending, and give the full ranking. Sort the labels as requested; that list is your answer.
c, b, a

From: patent US20120245137A1
